Origin of values: patent US9326978B2

activity at 10 µM values, listed per item
target: human A3ARs (Homo sapiens (Human), UniProt P0DMS8); experiment: Dissociation kinetics of [125I]I-AB-MECA from human A3ARs; format: binding; conditions: 0.5 h, % decrease of dissociation at 30 min, residual binding of [125I]AB-MECA after 30 min = 100%, Table 2, read-out: hA3AR Ag. Dissociation at 10 μM
Use % as the unit, but write only the number.

Below, each entry is followed by its recorded activity at 10 µM result.
1) Clc1ccc(Nc2nc3ccccc3c3[nH]c(C4CCCCCC4)nc23)cc1Cl [Compound 42]; 130
2) c1ccc2c(c1)nc(Nc1ccc3c(c1)CCC3)c1nc(C3CCCC3)[nH]c12 [Compound 36]; 108
3) COc1ccc(CNc2nc3ccccc3c3[nH]c(C4CCCC4)nc23)cc1 [Compound 38]; 101
4) Clc1ccc(Nc2nc3ccccc3c3[nH]c(-c4ccco4)nc23)cc1Cl [Compound 43]; 98
5) Cc1ccc(Nc2nc3ccccc3c3[nH]c(C4CCCC4)nc23)cc1 [Compound 31]; 153
6) c1ccc(CCNc2nc3ccccc3c3[nH]c(C4CCCC4)nc23)cc1 [Compound 41]; 154
7) Clc1ccc(Nc2nc3ccccc3c3[nH]c(C4CCCCC4)nc23)cc1Cl [Compound 45]; 173
8) c1ccc2c(c1)nc(Nc1ccc3cc[nH]c3c1)c1nc(C3CCCC3)[nH]c12 [Compound 39]; 126

Please turn your attention to the following entry.
For the compound shown here, c1ccc(CNc2nc3ccccc3c3[nH]c(C4CCCC4)nc23)cc1 [Compound 40] , give the reported activity at 10 µM.
145

* * *

target: UniProtKB P0DMS8; assay: Competitive binding assay to the human A3AR ([125I]I-AB-MECA); conditions: 1 h; 10 μM; [125I]I-AB-MECA (0.5 nM), CHO cells; Table 2; read-out: hA3AR % displ. at 10 μM
inhibition at 10 µM values, listed per item
Use % as the unit, but write only the number.

Below, each entry is followed by its recorded inhibition at 10 µM result.
1) Clc1ccc(Nc2nc3ccccc3c3[nH]c(-c4ccco4)nc23)cc1Cl; 78
2) c1ccc2c(c1)nc(Nc1ccc3c(c1)CCC3)c1nc(C3CCCC3)[nH]c12; 69

Report inhibition at 10 µM for `COc1ccc(Nc2nc3ccccc3c3[nH]c(C4CCCC4)nc23)cc1` tested on UniProtKB P0DMS8.
92

Report inhibition at 10 µM for `Clc1ccc(Nc2nc3ccccc3c3[nH]c(C4CCCC4)nc23)cc1Cl` tested on UniProtKB P0DMS8.
67

Report inhibition at 10 µM for `Clc1ccc(Nc2nc3ccccc3c3[nH]c(C4CCCC4)nc23)cc1` tested on UniProtKB P0DMS8.
82

Report inhibition at 10 µM for `Clc1ccc(Nc2nc3ccccc3c3[nH]c(C4CCCCC4)nc23)cc1Cl` tested on UniProtKB P0DMS8.
45

Report inhibition at 10 µM for `c1ccc2c(c1)nc(Nc1ccc3cn[nH]c3c1)c1nc(C3CCCC3)[nH]c12` tested on UniProtKB P0DMS8.
67

Report inhibition at 10 µM for `Clc1ccc(Nc2nc3ccccc3c3[nH]c(C4CCC4)nc23)cc1Cl` tested on UniProtKB P0DMS8.
52

Report inhibition at 10 µM for `c1ccc(CNc2nc3ccccc3c3[nH]c(C4CCCC4)nc23)cc1` tested on UniProtKB P0DMS8.
86

* * *

target: human A3AR (Homo sapiens (Human)); assay: Competitive binding assay to the human A3AR ([125I]I-AB-MECA); conditions: 1 h; 10 μM; [125I]I-AB-MECA (0.5 nM), CHO cells; Table 2; read-out: hA3AR % displ. at 10 μM
inhibition at 10 µM values, listed per item
Use % as the unit, but write only the number.

For the compound shown here, c1ccc(Nc2nc3ccccc3c3[nH]c(C4CCCC4)nc23)cc1 [Compound 30, reference compound] , give the reported inhibition at 10 µM.
90

For the compound shown here, Clc1ccc(Nc2nc3ccccc3c3[nH]c(C4CCCCCC4)nc23)cc1Cl [Compound 42] , give the reported inhibition at 10 µM.
68

For the compound shown here, c1ccc(CCNc2nc3ccccc3c3[nH]c(C4CCCC4)nc23)cc1 [Compound 41] , give the reported inhibition at 10 µM.
84

For the compound shown here, COc1ccc(CNc2nc3ccccc3c3[nH]c(C4CCCC4)nc23)cc1 [Compound 38] , give the reported inhibition at 10 µM.
80

* * *

parameter: melting point

Below, each entry is followed by its recorded melting point result.
1) Clc1ccc(Nc2nc3ccccc3c3[nH]c(C4CCCCCC4)nc23)cc1Cl; 236 to 238 °C
2) c1ccc2c(c1)nc(Nc1ccc3cn[nH]c3c1)c1nc(C3CCCC3)[nH]c12; 235 to 236 °C
3) COc1ccc(Nc2nc3ccccc3c3[nH]c(C4CCCC4)nc23)cc1; 106 to 107 °C
4) Cc1ccc(Nc2nc3ccccc3c3[nH]c(C4CCCC4)nc23)cc1; 125 to 126 °C
5) Clc1ccc(Nc2nc3ccccc3c3[nH]c(C4CCCC4)nc23)cc1; 189 to 190 °C

For the compound shown here, `Clc1ccc(Nc2nc3ccccc3c3[nH]c(-c4ccco4)nc23)cc1Cl` , give the reported melting point.
135 to 138 °C

For the compound shown here, `c1ccc2c(c1)nc(Nc1ccc3c(c1)CCC3)c1nc(C3CCCC3)[nH]c12` , give the reported melting point.
142 to 145 °C

For the compound shown here, `c1ccc(CCNc2nc3ccccc3c3[nH]c(C4CCCC4)nc23)cc1` , give the reported melting point.
95 to 97 °C

For the compound shown here, `c1ccc2c(c1)nc(Nc1ccc3cc[nH]c3c1)c1nc(C3CCCC3)[nH]c12` , give the reported melting point.
260 to 261 °C

For the compound shown here, `CCCCCc1nc2c(Nc3ccc(Cl)c(Cl)c3)nc3ccccc3c2[nH]1` , give the reported melting point.
195 to 200 °C

For the compound shown here, `OCc1cccc(Nc2nc3ccccc3c3[nH]c(C4CCCC4)nc23)c1` , give the reported melting point.
228 to 230 °C

For the compound shown here, `Clc1ccc(Nc2nc3ccccc3c3[nH]c(C4CCC4)nc23)cc1Cl` , give the reported melting point.
131 to 134 °C

For the compound shown here, `COc1ccc(CNc2nc3ccccc3c3[nH]c(C4CCCC4)nc23)cc1` , give the reported melting point.
245 to 247 °C

For the compound shown here, `Clc1ccc(Nc2nc3ccccc3c3[nH]c(C4CCCC4)nc23)cc1Cl` , give the reported melting point.
114 to 115 °C

For the compound shown here, `Clc1ccc(Nc2nc3ccccc3c3[nH]cnc23)cc1Cl` , give the reported melting point.
167 to 172 °C

* * *

target: human A3ARs (Homo sapiens (Human), UniProt P0DMS8); experiment: Dissociation kinetics of [125I]I-AB-MECA from human A3ARs; format: binding; conditions: 0.5 h, % decrease of dissociation at 30 min, residual binding of [125I]AB-MECA after 30 min = 100%, Table 2, read-out: hA3AR Ag. Dissociation at 10 μM
parameter: activity at 10 µM (%)
Use % as the unit, but write only the number.

1. Clc1ccc(Nc2nc3ccccc3c3[nH]c(C4CCCC4)nc23)cc1Cl [Compound 33]; 144

For the compound shown here, c1ccc(Nc2nc3ccccc3c3[nH]c(C4CCCC4)nc23)cc1 [Compound 30, reference compound] , give the reported activity at 10 µM.
174

For the compound shown here, OCc1cccc(Nc2nc3ccccc3c3[nH]c(C4CCCC4)nc23)c1 [Compound 35] , give the reported activity at 10 µM.
129

* * *

Observed pKi, system human A3AR (Homo sapiens (Human), UniProt P0DMS8).
As a rule, pKi stands for the negative log10 of the concentration, concentration in M.

1) COc1ccc(Nc2nc3ccccc3c3[nH]c(C4CCCC4)nc23)cc1; 6.39
2) Clc1ccc(Nc2nc3ccccc3c3[nH]c(C4CCCC4)nc23)cc1; 5.79
3) Clc1ccc(Nc2nc3ccccc3c3[nH]c(C4CCCC4)nc23)cc1Cl; 5.33

Please turn your attention to the following entry.
Report pKi for c1ccc(Nc2nc3ccccc3c3[nH]c(C4CCCC4)nc23)cc1 [Compound 30, reference compound] tested on human A3AR (Homo sapiens (Human), UniProt P0DMS8).
Sequence (P0DMS8 whole entry): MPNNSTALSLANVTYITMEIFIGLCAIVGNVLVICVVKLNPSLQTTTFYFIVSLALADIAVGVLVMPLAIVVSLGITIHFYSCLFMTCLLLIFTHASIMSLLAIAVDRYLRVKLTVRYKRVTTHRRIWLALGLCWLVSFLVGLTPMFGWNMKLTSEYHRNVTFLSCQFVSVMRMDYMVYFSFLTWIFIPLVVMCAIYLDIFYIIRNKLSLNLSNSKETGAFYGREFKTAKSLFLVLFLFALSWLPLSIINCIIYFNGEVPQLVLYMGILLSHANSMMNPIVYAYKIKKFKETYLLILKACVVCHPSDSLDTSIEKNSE
6.10

* * *

Molecular target: UniProt P0DMS8
Assay: Dissociation kinetics of [125I]I-AB-MECA from human A3ARs
Format: binding
Details: 0.5 h, % decrease of dissociation at 30 min, residual binding of [125I]AB-MECA after 30 min = 100%, Table 2, read-out: hA3AR Ag. Dissociation at 10 μM
Description: The dissociation of [^125I]I-AB-MECA was measured as follows. Membranes (20 μg) were preincubated at 25° C. with 0.5 nM [^125I]I-AB-MECA, in a total volume of 100 μl of Tris-HCl buffer (50 mM, pH 8.0) containing 10 mM MgCl2, and 1 mM EDTA for 60 min. […] The time course of dissociation of total binding was measured by rapid filtration at appropriate time intervals. Nonspecific binding was measured after 60-min incubation in the presence of 3 μM Cl-IB-MECA. […]
parameter: activity at 10 µM (%)
Use % as the unit, but write only the number.

Below, each entry is followed by its recorded activity at 10 µM result.
1. Clc1ccc(Nc2nc3ccccc3c3[nH]c(C4CCCC4)nc23)cc1; 159
2. CCCCCc1nc2c(Nc3ccc(Cl)c(Cl)c3)nc3ccccc3c2[nH]1; 116
3. c1ccc2c(c1)nc(Nc1ccc3cn[nH]c3c1)c1nc(C3CCCC3)[nH]c12; 109
4. COc1ccc(Nc2nc3ccccc3c3[nH]c(C4CCCC4)nc23)cc1; 166

Report activity at 10 µM for `Clc1ccc(Nc2nc3ccccc3c3[nH]cnc23)cc1Cl` tested on UniProt P0DMS8.
91
